Data origin, for the record: PubChem BioAssay (NCATS)

- TEST_TARGET: N-terminal Xaa-Pro-Lys N-methyltransferase 1 (Homo sapiens) (UniProt Q9BV86)
- Sequence (Q9BV86 whole entry, looked up): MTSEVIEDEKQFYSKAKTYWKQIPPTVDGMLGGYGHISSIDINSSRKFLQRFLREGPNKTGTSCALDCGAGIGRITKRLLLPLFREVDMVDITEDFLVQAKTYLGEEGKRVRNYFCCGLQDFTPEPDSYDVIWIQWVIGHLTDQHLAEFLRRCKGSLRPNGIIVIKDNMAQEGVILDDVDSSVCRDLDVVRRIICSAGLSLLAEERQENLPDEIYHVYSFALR
- TEST_DESCRIPTION: qHTS Assay for Inhibitors of N-terminal methyltransferase 1 (NTMT1): LOPAC validation of the NTMT1 SAHH-coupled ThioGlo3 Assay (AID 1347143);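 note: SAH from peptide methylation measured as thiol fluorescence via SAHH coupling and ThioGlo3; nearly all actives have a fitted effect of over 70% in size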
- MEASUREMENT_PARAMETERS: recombinant NTMT1, SAHH-coupled ThioGlo3 fluorescence; series mostly up to 114 µM
Results filed as inconclusive are left out. Calls of active or inactive are those of the source. Calls come from the whole dose curve; as a rule, active = well fitted inhibition curve with a large enough effect; inconclusive = small, poorly fitted or top-dose-only effect; inactive = no such curve, though single readings can be large or run the other way.
Hello, when you answer, please use one of the following outcomes: true = active, false = inactive

O=C(O)C1CCCNC1 (stereo not given); false
CCCCS(=N)(=O)CC[C@H](N)C(=O)O (stereo not given in full); false
CCCCCCCCCCC/C=C\C(C)(C)/C=C\CCCC(=O)O; false
CC1CCN=C(N)S1 (stereo not given); false
NC1C=CC=C(C(=O)O)C1 (stereo not given); false
CO/N=C(\C(=O)N[C@@H]1C(=O)N2C(C(=O)O)=C(CSc3nc(=O)c(O)nn3C)CSC12)c1csc(N)n1 (stereo not given in full); false
CSC(=N)N; false
CC(C)Cn1c(=O)n(C)c(=O)c2[nH]cnc21; false
O=[N+]([O-])c1cccc2cn[nH]c12; false
CC1CCN(CC[C@H]2CCCN2S(=O)(=O)c2cccc(O)c2)CC1; false

What classification did O=C(O)C1=CCNCC1 end up with in this test? false

Record request — test call for CN1CCN(c2nc3cc(C(F)(F)F)ccc3n3cccc23)CC1 true

Please let me know the test result on file for Cc1nc(N=Nc2cc(S(=O)(=O)O)c3cc([N+](=O)[O-])cc(S(=O)(=O)O)c3c2)c(COP(=O)(O)O)c(C=O)c1O . true

Please state the recorded outcome for this molecule: NC1(C(=O)O)CCc2cc(C(=O)O)ccc21 (stereo not given) true

Which result was noted for this molecule in the test: O=C(O)/C=C/c1cnc[nH]1 false

Dear colleague, could you share the recorded outcome for CC(=O)/C(C)=N/O when you have a moment? false

Query: recorded result category for O=c1cc(O)cc(/C=C/c2ccc(O)c(O)c2)o1 in this test true

What did this assay record as the result for N=C(N)SCCN ? false

I'd appreciate the recorded outcome for Nc1nc2ccc(Cl)cc2c2nc(-c3ccco3)nn12 from this test. true

In this assay, the call recorded for c1ccc2nc(C3=NCCN3)ccc2c1 was what? false

Query: recorded result category for N#C/C(=C\c1ccc(O)c(O)c1)C(=O)NCCc1ccccc1 in this test true

For CC[C@@H]1Cc2cc(O)ccc2C2=C1c1ccc(O)cc1C[C@H]2CC , what call appears in the results of this test? true

State the result this test recorded for O=c1[nH]c(=S)[nH]c(-c2ccccc2)c1Cc1c(O)ccc2ccccc12 . true

So what was the verdict on CC1CNCCN1S(=O)(=O)c1cccc2cnccc12 (stereo not given) in this test? false

What classification did Cc1cc2c(cc1Cl)N(C(=O)Nc1ccnc3ccccc13)CC2 end up with in this test? false

Give the logged outcome of this assay for the following molecule: CNc1cc(NS(=O)(=O)c2ccc(N)cc2)nc(NC)n1 false

Name the outcome recorded for O=C(O)c1cc2cc(F)ccc2[nH]1 in the assay. true

For CCN(c1nc(N)c(C(=O)N=C(N)N)nc1Cl)C(C)C , what call appears in the results of this test? false

----------
- TEST_TARGET: D(1A) dopamine receptor (Homo sapiens) (UniProt P21728)
- Sequence (P21728 whole entry, looked up): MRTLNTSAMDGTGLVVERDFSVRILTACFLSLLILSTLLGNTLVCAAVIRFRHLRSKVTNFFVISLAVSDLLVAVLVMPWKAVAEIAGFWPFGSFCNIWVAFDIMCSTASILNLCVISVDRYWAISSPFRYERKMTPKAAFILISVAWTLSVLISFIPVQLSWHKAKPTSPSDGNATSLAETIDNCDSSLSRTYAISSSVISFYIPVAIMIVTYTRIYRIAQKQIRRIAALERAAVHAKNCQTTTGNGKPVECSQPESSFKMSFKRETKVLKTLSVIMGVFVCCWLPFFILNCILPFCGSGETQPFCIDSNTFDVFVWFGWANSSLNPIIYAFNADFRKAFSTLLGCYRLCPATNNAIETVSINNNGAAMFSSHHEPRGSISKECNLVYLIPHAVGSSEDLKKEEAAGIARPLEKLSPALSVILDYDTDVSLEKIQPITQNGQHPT
- TEST_DESCRIPTION: HTS Assay for Allosteric Agonists of the Human D1 Dopamine Receptor: Primary Screen for Agonists (AID 488981); note: 0% is about no effect
- MEASUREMENT_PARAMETERS: Inducible HEK293 T-REx D1 cells, calcium-flux fluorescence, 180 s kinetic; series mostly up to 41.8 µM
Records with an inconclusive call do not appear. Active and inactive are the calls of the source. The call rests on the fitted dose curve; in most records, active means well fitted activation curve with a large enough effect; inconclusive means small, poorly fitted or top-dose-only effect; inactive means flat fitted curve, though single readings scatter.
// classify into Yes = active, No = inactive

Reference set (5 entries):
CN1CCN(c2nc3cc(C(F)(F)F)ccc3n3cccc23)CC1; No
[N-]=[N+]=Nc1ccc(C(=O)CSC[C@H](NC(=O)CC[C@H](N)C(=O)O)C(=O)NCC(=O)O)cc1; No
NC(N)=N[C@@H](CCC(=O)O)C(=O)O; No
Cn1c(=O)c2[nH]c(-c3ccc(S(=O)(=O)O)cc3)nc2n(C)c1=O; No
Brc1c(Br)c(Br)c2[nH]cnc2c1Br; No

So what was the verdict on CC(=O)N[C@@H](Cc1c[nH]c2ccccc12)C(=O)OCc1cc(C(F)(F)F)cc(C(F)(F)F)c1 in this test? No

Given CC[C@H](NC(=O)c1c(C)c(-c2ccccc2)nc2ccccc12)c1ccccc1 , state the outcome it received in this test. No

# lookup: test call for NC1(C(=O)O)CCCCC1 No

What classification did O=c1[nH]c(=O)c2nc3ccccc3nc2[nH]1 end up with in this test? No

Recorded call for NCCC1CCCC(CCN)N1 (stereo not drawn) ? No

Call for entry COc1cc(N)c(Cl)cc1C(=O)OCCN1CCCCC1 : No

----------
- TEST_TARGET: Thyrotropin-releasing hormone receptor (Homo sapiens) (UniProt P34981)
- Sequence (P34981 whole entry, looked up): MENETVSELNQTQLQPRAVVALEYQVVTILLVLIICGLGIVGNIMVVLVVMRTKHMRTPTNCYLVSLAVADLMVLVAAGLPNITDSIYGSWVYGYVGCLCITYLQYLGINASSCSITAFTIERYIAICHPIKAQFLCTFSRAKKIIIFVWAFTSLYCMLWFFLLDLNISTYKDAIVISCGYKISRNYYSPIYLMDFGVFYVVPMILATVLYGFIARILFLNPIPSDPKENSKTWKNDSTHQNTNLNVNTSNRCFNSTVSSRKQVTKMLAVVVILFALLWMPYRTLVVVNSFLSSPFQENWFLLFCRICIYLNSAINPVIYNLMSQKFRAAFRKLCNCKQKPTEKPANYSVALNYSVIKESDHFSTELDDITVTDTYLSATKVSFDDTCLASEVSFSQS
- TEST_DESCRIPTION: qHTS for Small Molecule Agonists and Allosteric Enhancers of Human TRH Receptor: Validation Screen for Agonists (AID 493127);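 note: intracellular calcium rise by fluo-8 fluorescence before TRH EC20 addition; 0% is about no effect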
- MEASUREMENT_PARAMETERS: TRH receptor agonist cell assay; at 2 µM; stronger effect = higher value
As shown below, each of these molecules has a reported activation value.
Your answer is read as %, so omit the unit and give the number.

Answered cases to consult:
O=C1NC(=O)c2cc(Nc3ccccc3)c(Nc3ccccc3)cc21; 6
N[C@@H](CS(=O)O)C(=O)O; 0.688

// switching to the query molecule
So what's the measured activation for this one? CN[C@H](CC(=O)O)C(=O)O 1

----------
- TEST_DESCRIPTION: Cytometry Cell-Based qHTS for Inhibitors of the mTORC1 Signaling Pathway in MEF cells (AID 2668)
- MEASUREMENT_PARAMETERS: mTORC1 pathway readout; series mostly up to 38.3 µM
Records with an inconclusive call do not appear. The source made the active and inactive calls. Calls come from the whole dose curve; as a rule, active = well fitted inhibition curve with a large enough effect; inconclusive = small, poorly fitted or top-dose-only effect; inactive = flat fitted curve, though single readings scatter.
// one of YES (active), NO (inactive), no free text

CCCCCCCC/C=C\CCCCCCCC(=O)NCCc1ccc(O)c(O)c1; YES
NC1(C(=O)O)CC1; NO
CC(N)=O; NO

Fill in: this test's call for N=C(N)c1ccc(N)cc1 is ___ NO

Which result was noted for this compound in the test: COc1ccccc1N1CCN(CCCCN2C(=O)c3ccccc3C2=O)CC1 NO

Can you look up the reported call for O=C(O)c1cc2cc(F)ccc2[nH]1 for me? NO

In this assay, the call recorded for NCC(O)c1ccc(O)c(O)c1 (stereo not drawn) was what? NO

Please state the recorded outcome for this compound: O=C(O)CCC(=O)N1CCCC1C(=O)O (stereo not drawn) NO

----------
- TEST_DESCRIPTION: qHTS for differential inhibitors of proliferation of Plasmodium falciparum line D10 (AID 1877);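 note: parasites grown with compound for 72 h before DNA staining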; note: potency is the fitted concentration of half-maximal effect
- MEASUREMENT_PARAMETERS: series mostly up to 28.7 µM
Results filed as inconclusive are left out. Active and inactive are the calls of the source. Calls follow the shape of the dose curve; as a rule, active = well fitted curve in the direction sought with a large enough effect; inconclusive = small, poorly fitted or top-dose-only effect, or another doubt; inactive = no such curve, though single readings can be large or run the other way.
MEASURED_ATTRIBUTE: Potency

Would you please look over these solved cases?
C[C@H](O)C(=O)C1=Nc2c(nc(N)[nH]c2=O)NC1; inactive
C[C@H](NC(=O)/C(C#N)=C/c1ccc(O)c(O)c1)c1ccccc1; 12.6 µM (active)
NCCCNCCCCNCCCN; inactive
Nc1ncnc2c1c(-c1ccc(Oc3ccccc3)cc1)cn2C1CCCC1; 12.6 µM (active)

Quick one: Potency of NC(=O)CC[C@H](N)C(=O)O ? inactive

Name the reported Potency value associated with the molecule O=[N+]([O-])c1cccc2cn[nH]c12 inactive

Given COc1cc(CNC(=O)CCCCCCC(C)C)ccc1O , state its recorded Potency. inactive

Would you mind telling me what Potency value was observed for NCC(O)C1CCCCCCC1 (centres undefined) ? inactive

GET /values?readout=Potency&item= COC(=O)C(N)Cc1ccc(Cl)cc1 (centres undefined) inactive

I'd like to know its Potency. The molecule in question is Cc1nc(N=Nc2ccc(S(=O)(=O)O)cc2S(=O)(=O)O)c(COP(=O)(O)O)c(C=O)c1O inactive

Potency lookup needed for O=c1oc(Cl)c(Cl)c2ccccc12 , thanks. inactive

----------
Below: a set of entries, each annotated with reported activity change, negative = inhibition.
- TEST_DESCRIPTION: NFAT Signaling Pathway (AID 444);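 note: carbachol stimulus at about its EC50 of 1 µM final; % is set by controls: 0 for no effect and ±100 for the full control effect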
- MEASUREMENT_PARAMETERS: Jurkat NFAT-bla M1, carbachol, beta-lactamase ratio, 5 h; at 38 µM (top of the series) unless noted
- Method: NCGC Assay Overview: The nuclear factor of activated T cells (NFAT) family of transcription factors has been found primarily in most immune system cells and some other non-immune cells. NFAT plays the immunomodulatory role, primarily in T-cell activation and differentiation. […] NCGC Assay Protocol Summary: The cells were prepared in RPMI 1640 medium containing 0.1% dialyzed FBS and 25 mM HEPES at 1.6 x 10^6cell/ml. […] The %Activity was determined from the ratio of 460nm/530nm. […]
Results filed as inconclusive are left out. Active and inactive are the calls of the source. The call rests on the fitted dose curve; in most records, active means well fitted curve in either direction with a large enough effect (not every such curve was filed as active); inconclusive means small, poorly fitted or top-dose-only effect, or another doubt; inactive means flat fitted curve, though single readings scatter.

Answered examples (2):
CCCn1c(=O)c2[nH]c(-c3ccc(S(=O)(=O)O)cc3)nc2n(CCC)c1=O; 13.8% (inactive)
COc1ccccc1N1CCN(CCCCNC(=O)c2ccc3ccccc3c2)CC1; -13.3% (inactive)

Which value of activity change, negative = inhibition has been reported for NCCCCN in the records? -2.09% (inactive)

Quick one: activity change, negative = inhibition of CC1CNCCN1S(=O)(=O)c1cccc2cnccc12 (stereo not given) ? 4.83% [at 17.2 µM] (inactive)

activity change, negative = inhibition lookup needed for c1ccc(CN2CCC3(CCCc4ccccc43)CC2)cc1 , thanks. -19.1% (inactive)
